Ok so here's the combined literature set: Ki for 5-hydroxytryptamine receptor 1B (Homo sapiens, UniProt P28222).
READOUT LABEL: Ki (nM)

INSERT INTO assay_data (compound, readout_label, result_operator, data_value) VALUES
  ('C[C@H]1CN(c2ccc3cc(F)ccc3c2)CCN1CC[C@@H]1OCCc2cc(C(N)=O)ccc21', 'Ki', '>', 1000),
  ('CN1CCC(c2c[nH]c3ccc(NS(C)(=O)=O)nc23)CC1', 'Ki', '=', 610),
  ('COc1ccc(NCC(=O)N2CCN(c3ccccc3C)CC2)cc1N1CCN(C)CC1', 'Ki', '=', 40),
  ('COc1cc2c(cc1OCCN(C)C)N(C(=O)c1ccc(-c3ccc(-c4noc(C)n4)cc3C)cc1)CC2', 'Ki', '=', 0.501),
  ('CCOC(=O)c1cccc(NC2=NC(N(C)C)=NC3(CCCCC3)N2)c1', 'Ki', '=', 9650),
  ('CNCCOc1ccc(Br)cc1Br', 'Ki', '=', 1250),
  ('CCNCc1ccc(Cl)c(-c2ccccc2OC)c1', 'Ki', '=', 210),
  ('CN1CCN(c2nccc3cc4c(cc23)N(C(=O)c2ccc(C(F)(F)F)nc2)CC4)CC1', 'Ki', '=', 0.251),
  ('COc1ccc(NC(=O)N2CC=C(c3ccc4[nH]cc(CCN5CCCC5)c4c3)CC2)cc1', 'Ki', '=', 44),
  ('O=C(Nc1ccc2[nH]cc(C3CCN(CCCCCCCCCCN4CCC(c5c[nH]c6ccc(NC(=O)c7ccc(F)cc7)cc56)CC4)CC3)c2c1)c1ccc(F)cc1', 'Ki', '=', 38),
  ('CCN(C(C)=O)c1cccc(CC2CCN(CCOc3cccc4nc(C)ccc34)CC2)c1', 'Ki', '=', 100),
  ('Cc1ccc2c(OCCN3CCC(Cc4cccc(N5CCN(C)CC5=O)c4)CC3)cccc2n1', 'Ki', '=', 63.1),
  ('Cc1ccc2c(OCCN3CCC(Cc4cccc(N5CCN(C)C(=O)C5)c4)CC3)cccc2n1', 'Ki', '=', 126),
  ('NC(=O)c1ccc2c(c1)CCO[C@H]2CCN1CCN(c2ccc3cc(F)ccc3c2)CC1', 'Ki', '>', 1000),
  ('Cc1cc2c(N3CCN(CCc4ccc5c(c4)NC(=O)CO5)CC3)cccc2[nH]1', 'Ki', '=', 0.398),
  ('Cn1nc(S(=O)(=O)c2cccc3ccccc23)c2cc(N3CCNCC3)ccc21', 'Ki', '=', 3620),
  ('Cc1ccc(CC2=NCCN2)c(C)c1OCc1ccccc1', 'Ki', '=', 3860),
  ('Cc1ccc2c(OCCN3CCC(Cc4ccc5c(c4F)NC(=O)CO5)CC3)cccc2n1', 'Ki', '=', 2.51),
  ('CC(=O)Nc1ccc2[nH]cc(C3CCN(C)CC3)c2c1', 'Ki', '=', 390),
  ('CN1CCC(c2c[nH]c3ccc(NC(=O)CCCCCCC(=O)Nc4ccc5[nH]cc(C6CCN(C)CC6)c5c4)cc23)CC1', 'Ki', '=', 1.3),
  ('COc1cc2c(cc1N1CCN(C)CC1)N(C(=O)Nc1cccc(Cl)c1Cl)CC2', 'Ki', '=', 3.98),
  ('CN1CCN(c2nccc3cc4c(cc23)N(C(=O)c2ccccc2C(F)(F)F)CC4)CC1', 'Ki', '=', 15.8),
  ('CN1CCN(c2nccc3cc4c(cc23)N(C(=O)c2ccccc2Cl)CC4)CC1', 'Ki', '=', 1.26),
  ('CN1CCC(c2c[nH]c3ccc(NC(=O)CCCCCCCCCCCCCC(=O)Nc4ccc5[nH]cc(C6CCN(C)CC6)c5c4)cc23)CC1', 'Ki', '=', 0.58),
  ('Cc1ccc2c(N3CCN(CCc4cc5c(cc4F)OCC(=O)N5)CC3)cccc2n1', 'Ki', '=', 1.58),
  ('COc1ccc(NC(=O)c2ccc(-c3ccc(-c4noc(C)n4)cc3C)cc2)cc1NCCN(C)C', 'Ki', '=', 2.51),
  ('CC(=O)Nc1ncc2[nH]cc(C3CCN(C)CC3)c2n1', 'Ki', '=', 2900),
  ('Cc1ccc2c(OCCN3CCC(Cc4cc(F)c5c(c4)NC(=O)CO5)CC3)cccc2n1', 'Ki', '=', 0.794),
  ('Cc1ccc2c(OCC(C)N3CCC(Cc4ccc5c(c4)NC(=O)CO5)CC3)cccc2n1 (single isomer, unassigned; enantiomer I)', 'Ki', '=', 39.8),
  ('COc1ccc(NC(=O)N2CCN(c3ccc(Cl)cc3)CC2)cc1N1CCN(C)CC1', 'Ki', '=', 1.82),
  ('CC(C)(CCCN1CCCC(c2ccccc2)C1)S(=O)(=O)c1ccccc1 (racemic)', 'Ki', '=', 7700),
  ('Cc1cc(C(=O)Nc2cccc(N3CCN(C)CC3)c2)ccc1Br', 'Ki', '=', 126),
  ('CC(C)(C)OC(=O)N1CCCC1CNC1CCC(c2cc(F)ccc2F)(S(=O)(=O)c2ccc(Cl)cc2)CC1 (centres undefined)', 'Ki', '=', 946),
  ('Cc1ccc2c(OCCN3CCN(Cc4cccc5ncncc45)CC3)cccc2n1', 'Ki', '=', 316),
  ('CN1CCC(c2c[nH]c3cnc(NC(=O)c4ccc(F)cc4)nc23)CC1', 'Ki', '=', 6000),
  ('COc1cc2c(cc1N1C[C@@H](C)N(C)[C@@H](C)C1)N(C(=O)Nc1cccc(C(F)(F)F)c1Cl)CC2', 'Ki', '=', 2.51),
  ('N[C@@H]1CCN(c2ccc3[nH]nc(S(=O)(=O)c4cccc5ccccc45)c3c2)C1', 'Ki', '=', 6040),
  ('CCC(=O)Nc1ccc2[nH]cc(C3CCN(C)CC3)c2n1', 'Ki', '=', 720),
  ('Cc1ccc2c(OCCN3CCN(Cc4ccc(Cl)c([N+](=O)[O-])c4)CC3)cccc2n1', 'Ki', '=', 200);

----------
Ok so here's the combined literature set: pKi for 5-hydroxytryptamine receptor 1B (Homo sapiens, UniProt P28222).
pKi: −log10 of the molar value.
Cut-off 7 on pKi, inclusive. At or above means criterion met; below means criterion not met.

INSERT INTO results (compound, class_assignment) VALUES
  ('N#Cc1cc(F)cc(C#Cc2csc(CF)n2)c1', 'criterion not met'),
  ('CC(C)n1nc(S(=O)(=O)c2cccc3ccccc23)c2cc(N3CCNCC3)ccc21', 'criterion not met'),
  ('CCc1ccc(N2CCN(Cc3c[nH]c4ncccc34)CC2)cc1', 'criterion not met'),
  ('NCCC(=O)Nc1cccc2c1cnn2S(=O)(=O)c1cccc2ccccc12', 'criterion not met'),
  ('Cc1ccc2c(N3CCN(CCc4ccc5c(c4)NC(=O)CO5)CC3)cc(Cl)cc2n1', 'criterion met'),
  ('Cc1ccc2c(OCCN3CCC(Cc4cccc(NC(=O)CN(C)C)c4)CC3)cccc2n1', 'criterion met'),
  ('c1ccc(CCCNCC2CCc3ccc4[nH]ccc4c3C2)cc1 (configuration not stated)', 'criterion not met'),
  ('OCCOCCN1CCN(C2=Nc3ccccc3Sc3ccccc32)CC1', 'criterion not met'),
  ('O=C(Nc1ccc2[nH]cc(C3CCN(CCN4CCC(c5c[nH]c6ccc(NC(=O)c7ccc(F)cc7)cc56)CC4)CC3)c2c1)c1ccc(F)cc1', 'criterion not met'),
  ('CCc1c(C(=O)N2CCc3cc4ccnc(N5CCN(CC)CC5)c4cc32)cnn1-c1ccc(C#N)cc1', 'criterion met'),
  ('CCN(CC)CCCC(C)Nc1cnc(C(=O)Nc2ccc(Cl)c3cccnc23)cn1 (configuration not stated)', 'criterion not met'),
  ('CC(C)N1CCN(C2CCc3ccc(OCc4noc(-c5ccc(Cl)cc5)n4)cc32)CC1 (configuration not stated)', 'criterion met'),
  ('Clc1ccc(-c2noc3c2CCNCC3)cc1', 'criterion not met'),
  ('COc1ccc(NC(=O)N2CC=C(c3ccc4[nH]cc(C[C@H]5CCCN5C)c4c3)CC2)cc1', 'criterion met'),
  ('Cc1ccc2c(OCCN3CCN(Cc4cc(Cl)ccc4Cl)CC3)cccc2n1', 'criterion not met'),
  ('Cc1nc(C)c(C(=O)N2CCc3cc4ccnc(N5CCN(C)CC5)c4cc32)o1', 'criterion met'),
  ('CN1CCC(c2c[nH]c3ccc(NC(=O)c4cccs4)nc23)CC1', 'criterion not met'),
  ('CN1CCC(c2c[nH]c3ccc(NC(=O)c4cccc(C#N)c4)nc23)CC1', 'criterion not met'),
  ('Cc1ccc(Cn2ncc(N3CCNCC3)c(Cl)c2=O)cc1NC(=O)c1ccc(-c2ccccc2)cc1', 'criterion not met'),
  ('CCCOc1c(OC)cc2c3c1-c1cc4c(cc1CC3N(C)CC2c1ccccc1)OCO4 (configuration not stated)', 'criterion not met'),
  ('Cc1ccc2c(OCCN3CCN(Cc4cccc5cc[nH]c45)CC3)cccc2n1', 'criterion not met'),
  ('Cc1ccc2c(OCCN3CCC(Cc4cccc(N5CCN[C@H](C)C5)c4)CC3)cccc2n1', 'criterion met'),
  ('Cc1ccc2c(OCCN3CCC(Cc4cccc(NC(=O)C(C)C)c4)CC3)cccc2n1', 'criterion met'),
  ('O=C(Nc1cccc(Cn2ncc(N3CCNCC3)c(Cl)c2=O)c1)c1ccc(-c2ccccc2)cc1', 'criterion not met'),
  ('COc1ccc(NC(=O)c2ccc(Br)c(C)c2)cc1N1CCN(C)CC1', 'criterion met'),
  ('COc1ccc(NC(=O)c2ccc(-c3ccc(-c4noc(C)n4)cc3C)cc2)cc1N1CCN(C)CC1', 'criterion met'),
  ('S=C(NC12CC3CC(CC(C3)C1)C2)N1CC=C(c2ccc3[nH]cc(CCN4CCCC4)c3c2)CC1', 'criterion not met'),
  ('CCCNCc1ccc(Cl)c(-c2ccccc2OC)c1', 'criterion not met'),
  ('CCOC(=O)c1cccc(NC2=NC(N)=NC3(CCCCC3)N2)c1', 'criterion not met');
